# system name: CCR6 (Homo sapiens)
# Construct: Human CD4+CCR6+CXCR3-T cells were isolated from leukopak from healthy donors; endogenous in cells
# experiment description: CCR6+ T Cell Chemotaxis Assay
# Format: cell-based
# condition context: Table 11; human CD4+CCR6+CXCR3- T cells, CCL20 0.5 nM in bottom chamber, 1 h at 37° C.; read-out: IC50
pIC50: −log10 of the molar value.
reported endpoint: pIC50

[[record]]
compound = "Cc1nc([C@H](Nc2c(Nc3ccnc(C(=O)N(C)C)c3O)c(=O)c2=O)C2(C)CCCC2)c(C)o1 (single isomer, unassigned)"
numeric_readout = 7.62

[[record]]
compound = "Cc1cn(C)nc1[C@H](Nc1c(Nc2ccnc(C(=O)N(C)C(C)C)c2O)c(=O)c1=O)C1(C)CCCC1"
numeric_readout = 8.64

[[record]]
compound = "CC(C)N(C)C(=O)c1nccc(Nc2c(N[C@@H](c3nn(C)cc3C#N)C3(C)CCCC3)c(=O)c2=O)c1O"
numeric_readout = 7.34

[[record]]
compound = "Cc1nc([C@H](Nc2c(Nc3ccnc(C(=O)N(C)C)c3O)c(=O)c2=O)C(C)(C)C)c(C)s1"
numeric_readout = 8.92

[[record]]
compound = "COc1sc(C)nc1[C@H](Nc1c(Nc2ccnc(C(=O)N(C)C)c2O)c(=O)c1=O)C1(C)CCCC1"
numeric_readout = 8.36


A. CCC1([C@@H](Nc2c(Nc3ccnc(C(=O)N(C)C)c3O)c(=O)c2=O)c2nn(C)cc2C)CCC1 (single isomer, unassigned)
B. COc1cn(C)nc1[C@H](Nc1c(Nc2ccnc(C(=O)N(C)C)c2O)c(=O)c1=O)C1(C)CCCC1
C. Cc1cn(C)nc1[C@H](Nc1c(Nc2ccnc(C(=O)N(C)C)c2O)c(=O)c1=O)C(C)(C)C
Query: Order these by pIC50, descending, and give the full ranking. // rank by listing labels in the order requested
Reply: B, C, A
(B: 8.77, C: 8.13, A: 7.52)

---

# system name: UniProtKB P25025
# Sequence (P25025 whole entry): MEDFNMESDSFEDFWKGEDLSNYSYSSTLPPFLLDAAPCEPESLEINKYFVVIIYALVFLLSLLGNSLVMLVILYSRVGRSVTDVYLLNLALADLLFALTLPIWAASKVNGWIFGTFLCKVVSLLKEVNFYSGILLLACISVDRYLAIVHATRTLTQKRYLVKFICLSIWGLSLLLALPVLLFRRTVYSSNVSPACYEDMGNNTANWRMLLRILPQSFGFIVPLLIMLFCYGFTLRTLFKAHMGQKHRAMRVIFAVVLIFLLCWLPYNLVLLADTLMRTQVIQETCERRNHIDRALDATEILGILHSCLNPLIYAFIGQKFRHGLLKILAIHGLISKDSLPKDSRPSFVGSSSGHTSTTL
# experiment description: Human Neutrophil Chemotaxis Assay
# Type: cell-based
# Set-up: Human neutrophils were purified from freshly drawn human whole blood; endogenous in cells; host or cells: primary human neutrophils from fresh whole blood
# condition context: Table 15; WO 2010/131145 comparator compounds; read-out: IC50 (nM) CXCR2 Neutrophil, GROα Chemotaxis
reported endpoint: IC50 (nM)

I. CC[C@@H](Nc1c(Nc2ccnc(C(=O)N(C)C)c2O)c(=O)c1=O)c1cccc(C2CC2)c1 [Example 120, reference compound]
II. CC[C@@H](Nc1c(Nc2ccnc(C(=O)N(C)C)c2O)c(=O)c1=O)c1cc(C(C)C)co1 [Example 112, reference compound]
Query: Which value of IC50 is smaller, the one for I or the one for II ? Response format: the label of the selected entry.
Reply: I
(I: 5.7 nM, II: 23.2 nM)

---

# system name: CCR6 (Homo sapiens)
# Construct: Human CD4+CCR6+CXCR3-T cells were isolated from leukopak from healthy donors; endogenous in cells
# experiment description: CCR6+ T Cell Chemotaxis Assay
# Format: cell-based
# condition context: Table 14; R = CH3; read-out: R = CH3, IC50 (nM) CCR6 T cell, CCL20 Chemotaxis
reported endpoint: IC50 (nM)

1. Cc1nc([C@H](Nc2c(Nc3ccnc(C(=O)N(C)C)c3O)c(=O)c2=O)C2(C)CCCC2)c(C)s1
2. Cc1cn(C)nc1[C@H](Nc1c(Nc2ccnc(C(=O)N(C)C)c2O)c(=O)c1=O)C1(C)CCCC1
Query: Decide: 1 or 2 , by lowest recorded IC50. Your answer should be the label of the entry you select.
Reply: 1

---

# system name: CCR6 (Homo sapiens)
# Construct: Human CD4+CCR6+CXCR3-T cells were isolated from leukopak from healthy donors; endogenous in cells
# experiment description: CCR6+ T Cell Chemotaxis Assay
# Assay type: cell-based
# condition context: Table 14; R = H; read-out: R = H, IC50 (nM) CCR6 T cell, CCL20 Chemotaxis
reported endpoint: IC50 (nM)

[[record]]
molecule = "CN(C)C(=O)c1nccc(Nc2c(NC(c3ccn(C)n3)C3(C)CCCC3)c(=O)c2=O)c1O (stereo not drawn) [drawing 179 (R = H), reference compound]"
numeric_readout = 19.2


a. Cc1nc([C@H](Nc2c(Nc3ccnc(C(=O)N(C)C)c3O)c(=O)c2=O)C2(C)CCCC2)co1 [drawing 181 (R = H), reference compound]
b. Cc1nc([C@H](Nc2c(Nc3ccnc(C(=O)N(C)C)c3O)c(=O)c2=O)C2(C)CCCC2)cs1 [drawing 180 (R = H), reference compound]
Query: Which entry shows the lesser value of IC50 here, a or b ? Indicate which entry you chose by stating its label.
Reply: b
(b: 32.1 nM, a: 64.5 nM)

---

# system name: CCR6 (Homo sapiens, UniProt P51684)
# Construct: Human CD4+CCR6+CXCR3-T cells were isolated from leukopak from healthy donors; endogenous in cells
# Sequence (P51684 whole entry): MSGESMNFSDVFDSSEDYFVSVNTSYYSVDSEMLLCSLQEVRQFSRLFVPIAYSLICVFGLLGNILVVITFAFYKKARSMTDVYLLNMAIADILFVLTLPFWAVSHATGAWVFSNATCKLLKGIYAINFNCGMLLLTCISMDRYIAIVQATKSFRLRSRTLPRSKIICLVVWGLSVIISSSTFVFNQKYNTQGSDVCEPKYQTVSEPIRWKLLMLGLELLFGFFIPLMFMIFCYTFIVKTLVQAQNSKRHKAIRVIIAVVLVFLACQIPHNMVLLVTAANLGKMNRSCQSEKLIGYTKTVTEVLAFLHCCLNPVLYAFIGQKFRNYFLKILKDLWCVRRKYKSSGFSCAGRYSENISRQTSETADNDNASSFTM
# experiment description: CCR6+ T Cell Chemotaxis Assay
# Format: cell-based
# condition context: Table 13; T cell chemotaxis compared to neutrophil chemotaxis; NS = not selective for T cell chemotaxis compared to neutrophil chemotaxis
# Procedure: Human CD4+CCR6+CXCR3-T cells were isolated from leukopak from healthy donors using EasySep™ Human Th17 Cell Enrichment Kit. […] Day 4 post activation, Dynabeads were removed from the culture. The activated T cells were maintained at 1-2×10^6 cells/mL for 15 days by feeding fresh growth media when needed. […] IC50 values for compounds of the present invention (Table 11) were determined by the non-linear regression analysis of dose response curves.
reported endpoint: T Cell Chemotaxis Selectivity

[[record]]
molecule = "CCc1cn(C)nc1[C@H](Nc1c(Nc2ccnc(C(=O)N(C)C)c2O)c(=O)c1=O)C(C)(C)C [Example 27]"
reported_endpoint = "T Cell Chemotaxis Selectivity"
numeric_readout = 4

[[record]]
molecule = "Cc1cn(C)nc1[C@H](Nc1c(Nc2ccnc(C(=O)N3CCN(C)CC3)c2O)c(=O)c1=O)C1(C)CCCC1 [Example 7]"
reported_endpoint = "T Cell Chemotaxis Selectivity"
numeric_readout = 72

[[record]]
molecule = "CN(C)C(=O)c1nccc(Nc2c(N[C@@H](c3nn(C)cc3C3CC3)C3(C)CCCC3)c(=O)c2=O)c1O [Example 29]"
reported_endpoint = "T Cell Chemotaxis Selectivity"
numeric_readout = 367

[[record]]
molecule = "COc1sc(C)nc1[C@H](Nc1c(Nc2ccnc(C(=O)N(C)C)c2O)c(=O)c1=O)C1(C)CCCC1 [Example 33]"
reported_endpoint = "T Cell Chemotaxis Selectivity"
numeric_readout = 16

[[record]]
molecule = "Cc1sc(CO)nc1[C@H](Nc1c(Nc2ccnc(C(=O)N(C)C)c2O)c(=O)c1=O)C1(C)CCCC1 [Example 28]"
reported_endpoint = "T Cell Chemotaxis Selectivity"
numeric_readout = 60


A. Cc1cn(C)nc1[C@H](Nc1c(Nc2ccnc(C(=O)N(C)C)c2O)c(=O)c1=O)C(C)(C)C [Example 22]
B. CCC1([C@@H](Nc2c(Nc3ccnc(C(=O)N(C)C)c3O)c(=O)c2=O)c2nn(C)cc2C)CCC1 (single isomer, unassigned) [Example 35]
Query: Quick one: lower T Cell Chemotaxis Selectivity, A or B ? Please indicate the selected item by its label.
Reply: B

---

# system name: CCR6 (Homo sapiens, UniProt P51684)
# Construct: Human CD4+CCR6+CXCR3-T cells were isolated from leukopak from healthy donors; endogenous in cells
# experiment description: CCR6+ T Cell Chemotaxis Assay
# Assay type: cell-based
# condition context: Table 13; T cell chemotaxis compared to neutrophil chemotaxis; NS = not selective for T cell chemotaxis compared to neutrophil chemotaxis
# Procedure: Human CD4+CCR6+CXCR3-T cells were isolated from leukopak from healthy donors using EasySep™ Human Th17 Cell Enrichment Kit. […] Day 4 post activation, Dynabeads were removed from the culture. The activated T cells were maintained at 1-2×10^6 cells/mL for 15 days by feeding fresh growth media when needed. […] IC50 values for compounds of the present invention (Table 11) were determined by the non-linear regression analysis of dose response curves.
reported endpoint: T Cell Chemotaxis Selectivity

1. Cc1cn(C)nc1[C@H](Nc1c(Nc2ccnc(C(=O)N(C)C)c2O)c(=O)c1=O)C1(C)CC2(CC2)C1 (single isomer, unassigned)
2. CCc1cn(C)nc1[C@H](Nc1c(Nc2ccnc(C(=O)N(C)C)c2O)c(=O)c1=O)C1(C)CCC1
Query: Of 1 and 2 , whose reported T Cell Chemotaxis Selectivity is numerically smaller? I would appreciate it if you answered with the label of your choice.
Reply: 2
(2: 43, 1: 535)

I. CC(C)N(C)C(=O)c1nccc(Nc2c(N[C@@H](c3nn(C)cc3Cl)C3(C)CCCC3)c(=O)c2=O)c1O
II. CCc1cn(C)nc1[C@H](Nc1c(Nc2ccnc(C(=O)N(C)C)c2O)c(=O)c1=O)[C@]1(C)CC(F)(F)CO1
Query: Of I and II , whose reported T Cell Chemotaxis Selectivity is numerically smaller? Indicate your choice by writing its label.
Reply: I
(I: 20, II: 698)

I. CC(C)N(C)C(=O)c1nccc(Nc2c(N[C@@H](c3nn(C)cc3C#N)C3(C)CCCC3)c(=O)c2=O)c1O
II. Cc1nc([C@H](Nc2c(Nc3ccnc(C(=O)N(C)C)c3O)c(=O)c2=O)C2(C)CCCC2)c(C)o1 (single isomer, unassigned)
Query: For I and II , which recorded T Cell Chemotaxis Selectivity is lower? Record your answer as the label of the chosen record.
Reply: I
